The measured values listed here are drawn from patent US6359144B1.

Target: κ-opioid receptor (Rattus norvegicus, UniProt P34975)
Construct: can be performed with particulate membranes prepared using a modification of the method described in Pasternak et al; tissue Rockland (Gilbertsville, Pa.); host or cells: rat brain minus cerebellum, crude particulate membranes
Sequence (P34975 whole entry): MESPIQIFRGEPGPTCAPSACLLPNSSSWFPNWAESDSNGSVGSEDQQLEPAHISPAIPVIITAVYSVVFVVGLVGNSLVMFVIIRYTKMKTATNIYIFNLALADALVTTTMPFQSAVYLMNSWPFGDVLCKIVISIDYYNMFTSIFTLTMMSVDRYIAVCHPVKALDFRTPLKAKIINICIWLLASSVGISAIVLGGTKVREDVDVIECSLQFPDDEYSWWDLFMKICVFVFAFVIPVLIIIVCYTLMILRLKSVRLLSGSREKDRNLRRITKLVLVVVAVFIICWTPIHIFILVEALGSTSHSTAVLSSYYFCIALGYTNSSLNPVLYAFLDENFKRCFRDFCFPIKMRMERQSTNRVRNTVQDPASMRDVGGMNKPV
Assay: κ-opioid receptor radio-receptor binding assay ([3H]-U69,593)
Conditions: 24 individual compounds, Table 9; read-out: IC50
pIC50: −log10 of the molar value.
readout.type: pIC50

Exercise: Query (compound): CC(C)C[C@@H]1CN2C(=NC[C@@H]2C)N1CCCC1CCCCC1 [compound 7] ; field requested: pIC50
Key: 5.26

Exercise: Then CC(C)C[C@@H]1CN2C(=NC[C@@H]2C2CCCCC2)N1CCCC1CCCCC1 [compound 9] ?
Key: 5.43

----------
Target: calmodulin (Homo sapiens, UniProt P0DP23)
readout.type: IC50 (µM)

# example entries with known answers
Exercise: May I ask what IC50 has been recorded for CC(C)(C)C1CCC(CN2C3=NCC(C4CCCCC4)N3CC2CC2CCCCC2)CC1 (single isomer, unassigned) ?
Key: 3.19

Exercise: And then C1CCC(C2CN3C(=NCC3C3CCCCC3)N2CCC23CC4CC(CC(C4)C2)C3)CC1 (single isomer, unassigned) [L-Chg/D-chg/1-adamantaneacetic acid] , what is it?
Key: 4.61

Exercise: Please do the same for CC(C)(C)C1CCC(CN2C3=NC[C@@H](CC4CCCCC4)N3C[C@H]2CC2CCCCC2)CC1 (stereo partly shown) as well.
Key: 4.43

[1] CC(C)(C)C1CCC(CN2C3=NC[C@H](C4CCCCC4)N3C[C@@H]2C2CCCCC2)CC1 (stereo partly shown)
[2] CC(C)(C)C1CCC(CN2C3=NC[C@@H](CC4CCCCC4)N3C[C@@H]2CC2CCCCC2)CC1 (stereo partly shown)
Exercise: Returns: the label, 1 or 2 , whose recorded IC50 is the lower number. // respond with label for picked entry
Key: 2

[A] CC(C)(C)C1CCC(CN2C3=NC[C@H](CC4CCCCC4)N3C[C@@H]2CC2CCCCC2)CC1 (stereo partly shown)
[B] C1CCC(C[C@@H]2CN=C3N2C[C@@H](C2CCCCC2)N3CCC23CC4CC(CC(C4)C2)C3)CC1 [D-cha/D-chg/1-adamantaneacetic acid]
Exercise: Of A and B , whose reported IC50 is numerically smaller? Choose, then provide that item's label.
Key: A

----------
Biological target: σ receptor (Rattus norvegicus, UniProt Q9R0C9)
Construct: can be performed with particulate membranes prepared using a modification of the method described in Pasternak et al; tissue Rockland (Gilbertsville, Pa.); host or cells: rat brain minus cerebellum, crude particulate membranes
Sequence (Q9R0C9 whole entry): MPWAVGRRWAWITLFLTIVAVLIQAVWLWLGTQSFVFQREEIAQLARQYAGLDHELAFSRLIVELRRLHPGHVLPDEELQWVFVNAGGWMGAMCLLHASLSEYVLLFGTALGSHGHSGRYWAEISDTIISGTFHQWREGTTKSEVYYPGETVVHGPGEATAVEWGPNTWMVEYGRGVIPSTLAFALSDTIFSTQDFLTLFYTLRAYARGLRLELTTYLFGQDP
Test: σ receptor radio-receptor binding assay
Settings: 17 additional individual compounds, Table 11
readout.type: IC50 (nM)

[1] CCN1C2=NC[C@H](Cc3ccccc3)N2C[C@@H]1Cc1ccc(I)cc1 [Phe/pI-Phe/acetic acid]
[2] CCN1C2=NC[C@H](Cc3ccccc3)N2C[C@H]1Cc1ccc(F)cc1 [Phe/pF-phe/acetic acid]
Exercise: Could you point out whether the larger IC50 belongs to 1 or to 2 ? API: response body contains the label of the selected item.
Key: 2
(2: 242 nM, 1: 65 nM)

----------
The following are reported pIC50 results, target or system calmodulin (Homo sapiens).
pIC50: −log10 of the molar value.
readout.type: pIC50

Exercise: Look at this compound and give its reported pIC50. CC(C)(C)C1CCC(CN2C3=NCC(C4CCCCC4)N3CC2CC2CCCCC2)CC1 (single isomer, unassigned)
Key: 5.62

[P] C1CCC(CC2CN3C(=NCC3C3CCCCC3)N2CCC23CC4CC(CC(C4)C2)C3)CC1 (single isomer, unassigned) [L-Chg/D-cha/1-adamantaneacetic acid]
[Q] CCN1C2=NC[C@H](Cc3ccccc3)N2C[C@H]1Cc1c[nH]c2ccccc12
Exercise: Which record would sort first by descending pIC50, P or Q ? // return label of chosen record
Key: P
(P: 5.55, Q: 4.71)

----------
Molecular target: calmodulin (Homo sapiens)
Construct: purchased Boehringer Mannheim (calmodulin); Sigma (PDE, 5'-nucleotidase)
Experiment: Calmodulin-dependent phosphodiesterase (CaMPDE) assay
Assay type: biochemical
Conditions: 53 individual compounds, Table 17
pIC50: −log10 of the molar value.
readout.type: pIC50

Exercise: // pIC50 lookup, key: CCN1C2=NC[C@@H](C)N2C[C@@H]1Cc1ccccc1
Key: 4.40

[a] CC(C)C[C@@H]1CN2C(=NC[C@@H]2C2CCCCC2)N1CCCC1CCCCC1
[b] C1CCC(CC2CN3C(=NCC3C3CCCCC3)N2CCC23CC4CC(CC(C4)C2)C3)CC1 (single isomer, unassigned) [D-chg/D-cha/1-adamantaneacetic acid]
Exercise: Lower pIC50: a or b ? # respond with the chosen item's label
Key: a

----------
Target: κ-opioid receptor (Rattus norvegicus)
Construct: can be performed with particulate membranes prepared using a modification of the method described in Pasternak et al; tissue Rockland (Gilbertsville, Pa.); host or cells: rat brain minus cerebellum, crude particulate membranes
Experiment: κ-opioid receptor radio-receptor binding assay ([3H]-U69,593)
Details: IC50, 24 individual compounds, Table 9
The compounds listed here are annotated with their IC50.
Quick note: give the figure in µM, leave out the unit.

Exercise: # query: IC50 of entry COc1ccc(CC2CN3C(=NCC3C3CCCCC3)N2CCC23CC4CC(CC(C4)C2)C3)cc1 (centres unmarked)
Key: 4.92

Exercise: Another compound to check: CC(C)CC1CN2C(=NCC2C)N1CCC12CC3CC(CC(C3)C1)C2 (centres unmarked)
Key: 3.64

Exercise: Another: CC(C)CC1CN2C(=NCC2C2CCCCC2)N1CCC12CC3CC(CC(C3)C1)C2 (centres unmarked)
Key: 1.21

Exercise: Then COc1ccc(CC2CN3C(=NCC3C)N2CCC23CC4CC(CC(C4)C2)C3)cc1 (centres unmarked) [compound 16] ?
Key: 0.238

Attention now turns to another entry.
Exercise: # IC50 lookup, item COc1ccc(CC2CN3C(=NCC3C)N2CCC23CC4CC(CC(C4)C2)C3)cc1 (centres unmarked) [compound 13]
Key: 1.52

----------
Target: σ receptor (Rattus norvegicus)
Construct: can be performed with particulate membranes prepared using a modification of the method described in Pasternak et al; tissue Rockland (Gilbertsville, Pa.); host or cells: rat brain minus cerebellum, crude particulate membranes
Assay: σ receptor radio-receptor binding assay
Conditions: 24 individual compounds, Table 10
readout.type: IC50 (nM)

Exercise: For COc1ccc(CC2CN3C(=NCC3C3CCCCC3)N2CCC23CC4CC(CC(C4)C2)C3)cc1 (centres unmarked) [compound 15] , what is its reported IC50?
Key: 256

[a] C1CCC(CCCN2C3=NC[C@@H](C4CCCCC4)N3C[C@@H]2C2CCCCC2)CC1 [compound 11]
[b] CC(C)C[C@@H]1CN2C(=NC[C@@H]2C2CCCCC2)N1CCCC1CCCCC1 [compound 9]
Exercise: Between a and b , whose measured IC50 reads higher? Record your answer as the label of the chosen record.
Key: a
(a: 405 nM, b: 13 nM)

----------
Let's go through some IC50 measurements on calmodulin (Homo sapiens) together.
readout.type: IC50 (µM)

Completed entries (count: 2):
Exercise: Record request: IC50 value, item c1ccc(CC2CN3C(=NCC3Cc3ccccc3)N2CCCC2CCCCC2)cc1 [L-Phe/L-Phe/cyclohexylpropionic acid]
Key: 21.5

Exercise: Next molecule up: C1CCC(CC2CN3C(=NCC3CC3CCCCC3)N2CCC23CC4CC(CC(C4)C2)C3)CC1 (single isomer, unassigned) [D-cha/L-Cha/1-adamantaneacetic acid]
Key: 3.97

[A] CC(C)(C)C1CCC(CN2C3=NCC(C4CCCCC4)N3CC2CC2CCCCC2)CC1 (single isomer, unassigned)
[B] CC(C)(C)C1CCC(CN2C3=NC[C@@H](CC4CCCCC4)N3C[C@H]2C2CCCCC2)CC1 (stereo partly shown)
Exercise: Select one: A or B . Criterion: greater recorded IC50. Refer to your chosen item by its label in the answer.
Key: A

[I] c1ccc(CC2CN3C(=NCC3Cc3ccccc3)N2CCCCC2CCCCC2)cc1 [L-Phe/L-Phe/cyclohexylbutyric acid]
[II] CC(C)(C)C1CCC(CN2C3=NC[C@H](CC4CCCCC4)N3C[C@H]2CC2CCCCC2)CC1 (stereo partly shown)
Exercise: Parameter check: reported IC50 is higher for which label, I or II ? Kindly give the label for the entry you pick.
Key: I

----------
Target: σ receptor (Rattus norvegicus, UniProt Q9R0C9)
Construct: can be performed with particulate membranes prepared using a modification of the method described in Pasternak et al; tissue Rockland (Gilbertsville, Pa.); host or cells: rat brain minus cerebellum, crude particulate membranes
Test: σ receptor radio-receptor binding assay
Conditions: 17 additional individual compounds, Table 11
pIC50: −log10 of the molar value.
readout.type: pIC50

In the examples that follow, each entry is paired with its recorded pIC50.
Exercise: So what's the measured pIC50 for this one? CCN1C2=NC[C@H](Cc3ccccc3)N2C[C@H]1C1CCCCC1 [Phe/chg/acetic acid]
Key: 6.92

Exercise: Now consider CCN1C2=NC[C@H](Cc3ccccc3)N2C[C@@H]1Cc1ccc(F)cc1 [Phe/pF-Phe/acetic acid] and answer again.
Key: 6.67

Exercise: # repeat for CCN1C2=NC[C@H](Cc3ccccc3)N2C[C@H]1Cc1ccc(Cl)cc1 [Phe/pCl-phe/acetic acid]
Key: 6.90

Exercise: Repeat for the following compound: CCN1C2=NCC(Cc3ccccc3)N2CC1Cc1ccc(Cl)cc1 (stereo not drawn) [Phe/pCl-Phe/acetic acid]
Key: 7.22

[1] CCN1C2=NC[C@H](Cc3ccccc3)N2C[C@@H]1Cc1ccc(OC)cc1 [Phe/Tyr(Me)/acetic acid]
[2] CC(C)CCN1C2=NC[C@H](Cc3ccccc3)N2C[C@@H]1Cc1ccccc1 [Phe/Phe/isovaleric acid]
Exercise: Kindly identify which of 1 and 2 has the larger recorded pIC50 value. Pick one; state its label.
Key: 1

[P] CCCC[C@H]1CN=C2N(CC)[C@@H](Cc3ccccc3)CN21 [Nle/Phe/acetic acid]
[Q] CC(C)(C)CCN1C2=NC[C@H](Cc3ccccc3)N2C[C@@H]1Cc1ccccc1 [Phe/Phe/(tert-butyl)acetic acid]
Exercise: Compare P and Q and name the one whose reported pIC50 is smaller. # answer = label of selected item
Key: P
(P: 6.67, Q: 6.95)
